Test system: BT-549 breast
Measurement Description: NCI-60 one-dose screen, 48 h
Condition Notes: 10 µM unless noted
This is part of a sample that, as a whole, favours compounds with a hit. Of some 83,000 tested, about 20% had one in any assay. The source made the active and inactive calls. Rule for the calls: active = growth percent below 10; inactive = the rest.
Labels: class 1 = active, class 0 = inactive

Compound | Label Value
Cc1ccc2nc(COc3ccc(C(=O)NNC(=O)Nc4ccc(Cl)c(C(F)(F)F)c4)cc3)[nH]c2c1 | class 1
O=C1c2cccc3c(N4CCN(c5ccccc5)CC4)ccc(c23)C(=O)N1c1cccc(-c2nn(-c3ccccc3)cc2-c2nc3ccccc3s2)c1 | class 0
N#CC1=C(c2cccs2)Nc2c(c(-c3ccccc3)nn2-c2ccccc2)C12C(=O)Nc1ccc(Br)cc12 (centres undefined) | class 1
CCCCC[C@@H]1C/C=C(\C)[C@@H](O)C(C)(C)C(=O)[C@@H](C)/C=C(\C)[C@@H]2C[C@H](O)C[C@](O)(CC(=O)O1)O2 | class 0

* * *

System: HOP-62 NSCLC
Measurement Description: NCI-60 one-dose screen, 48 h
Condition Notes: 10 µM unless noted
Compounds without any hit were thinned out: in the full panel of roughly 83,000, 20% have a hit. The source made the active and inactive calls. How the source made its calls: active means growth percent below 10; inactive means the rest.
Labels: class 1 (active), class 0 (inactive)

Compound | Label Value
C[C@@H]1[C@H]2C[C@@H](C[C@H]1NCc1nc3ccccc3n1C1CCCCCC1)C2(C)C | class 0
COc1cc(CNC(=O)[C@]23CCC(C)(C)CC2C2=CCC4[C@@]5(C)CCC(OC(C)=O)C(C)(C)C5CC[C@@]4(C)[C@]2(C)CC3)ccc1OCc1cn(-c2ccc(Cl)cc2Cl)nn1 (stereo partly drawn) | class 0
CN1C(=O)C(O)(CC(=O)c2cc3ccccc3oc2=O)c2ccccc21 (stereo not drawn) | class 0
Cn1cc(Nc2ncnc(-c3ccc(N4CCCC4)c(C#N)c3)n2)cn1 | class 0
N#CC1=C(c2ccco2)Nc2c(c(-c3ccccc3)nn2-c2ccccc2)C12C(=O)Nc1ccc(Br)cc12 (stereo not drawn) | class 0
CCc1ccc(SC2c3cc(OC)ccc3Oc3nc(N)c(C#N)c(N)c32)cc1 (stereo not drawn) | class 1
CN(C)CCOc1ccc(C(=O)C2[C@H](c3ccc(Cl)cc3)[C@@H](c3ccccc3)NC23C(=O)Nc2ccc(Cl)cc23)cc1 (stereo partly drawn) | class 1
Cc1ccc2nc(COc3ccc(C(=O)NNC(=O)Nc4ccc(Cl)c(C(F)(F)F)c4)cc3)[nH]c2c1 | class 1
Cc1nn(-c2ccccc2)c2nc(C)n(C(=O)N/N=C/c3ccccc3)c(=O)c12 | class 0
Clc1ccc(Nc2nnc(-c3c[nH]c4ccccc34)o2)cc1 | class 0
COc1ccc2[nH]c(=O)cc(-n3ncc(C(=O)/C=C/c4cc(OC)c(OC)c(OC)c4)c3C)c2c1 | class 1
CS(=O)(=O)Nc1cc(-c2ccc3ncnc(N4CCc5cc(F)c(Cl)cc54)c3c2)cnc1Cl | class 0
COc1ccc2[nH]cc(-c3cc4nc(-c5cn(C)c6ncccc56)cc(N)n4n3)c2c1 | class 0
O=C1Nc2cc(-c3ccc(NS(=O)(=O)c4ccc([N+](=O)[O-])cc4)cc3)ccc2/C1=C/c1ccc[nH]1 | class 1
COC(=O)CSC1=C(C)C(=O)C(OC)=C(OC)C1=O | class 0
CCCCCCCCc1ccc(C(=O)Nc2cccc(O)c2)cc1 | class 0
COc1cccc2nc(Nc3cccc(NC(=O)c4ccc(CN5CCN(C)CC5)c(C(F)(F)F)c4)c3)ccc12 | class 1
COc1ccc(C(=O)c2cc(C(C)=O)c3c(C)cc(C)cn23)cc1 | class 0

* * *

Test system: HT29 colon
Measurement Description: NCI-60 one-dose screen, 48 h
Condition Notes: 10 µM unless noted
About 83,000 compounds went through this panel and 20% of them were active in at least one assay; those are over-represented in the sample as a whole. Active and inactive are the calls of the source. How the source made its calls: active means growth percent below 10; inactive means the rest.
Labels: active, inactive

Molecule | Label Value
O=C(CSc1nc2sc3c(c2c(=O)n1-c1ccc(Cl)cc1)CCCC3)NNC(=O)c1ccc(Br)cc1 | inactive
CN1CCc2c(sc3ncnc(N/N=C/c4cccc(Cl)c4Cl)c23)C1 | active
Cc1cc(C)c2[nH]c(=O)c(C(c3nnnn3Cc3ccc4c(c3)OCO4)N3CCN(C)CC3)cc2c1 (centres undefined) | inactive
Cc1ccc(N=Nc2c(N)nn3c(-c4cc5ccccc5oc4=O)ccnc23)cc1 | inactive
O=C(CSc1nc2c(c(=O)[nH]1)CCCC2)Nc1ccccc1C(=O)O | inactive
COc1ccc(-c2cc(C(=O)OCc3ccc(Br)cc3)nn2-c2ccc(S(C)(=O)=O)cc2)cc1OC | inactive
N#CC1=C(c2ccco2)Nc2c(c(-c3ccccc3)nn2-c2ccccc2)C12C(=O)Nc1ccc(Br)cc12 (centres undefined) | inactive
C[C@H]1[C@@H](CC(=O)N[C@@H](Cc2coc3ccccc23)B(O)O)O[C@@H]2OC3(C)CC[C@H]4[C@H](C)CC[C@@H]1[C@@]24O3 | active
COc1cc2cc(C(=O)N3C[C@@H](CCl)c4c3cc(OC(=O)N(CCC(=O)N3CCN(C)CC3)[C@H]3CCSSC3)c3ccccc43)[nH]c2c(OC)c1OC | active

* * *

Tested on: OVCAR-5 ovarian
Measurement Description: NCI-60 one-dose screen, 48 h (100 = growth as untreated, 0 = no growth, -100 = all killed)
Condition Notes: 10 µM unless noted
Compounds without any hit were thinned out: in the full panel of roughly 83,000, 20% have a hit.
Class definitions on growth: lower level: < 20%; middle level: ≥ 20% and < 80%; upper level: ≥ 80%

Molecule | Label Value
Cc1ccc(-c2cc(C(=O)N=Nc3c(O)[nH]c4ccc(F)cc34)c3ccccc3n2)cc1 | middle level
C[C@@H]1CN(c2ccc3ncc(C#Cc4cncc(C(=O)Nc5ccc(CN6CCN(C)CC6)c(C(F)(F)F)c5)c4)n3n2)C[C@@H](C)O1 | lower level
COc1cc(CNC(=O)[C@]23CCC(C)(C)CC2C2=CCC4[C@@]5(C)CCC(OC(C)=O)C(C)(C)C5CC[C@@]4(C)[C@]2(C)CC3)ccc1OCc1cn(-c2ccc(Cl)cc2Cl)nn1 (some centres not stated) | upper level
COc1cccc(C(N)=Nc2ccc(OCCCCCCCCn3cncn3)cc2)c1 | middle level
COC(=O)c1cc(C(=O)C(F)(F)F)n2c3ccccc3c3ccccc3c12 | upper level
COc1cccc2nc(Nc3cccc(NC(=O)c4ccc(CN5CCN(C)CC5)c(C(F)(F)F)c4)c3)ccc12 | lower level
C[C@@H](Nc1c(C#N)cnc2ccc(-c3cnc4[nH]ncc4c3)cc12)c1ccccc1 | lower level
COc1ccc(-c2cc(C(=O)OCc3ccc(Br)cc3)nn2-c2ccc(S(C)(=O)=O)cc2)cc1OC | upper level
Cc1ccc(C2CC(c3ccc(NC(=O)Nc4ccccc4)cc3)=NN2c2ccc(S(N)(=O)=O)cc2)cc1 (configuration not stated) | lower level
Cn1cc(-c2cc(N)n3nc(-c4c[nH]c5ccc(Cl)cc45)cc3n2)c2cccnc21 | lower level
O=C(c1ccc(Cl)cc1)C1[C@H](c2ccccc2Cl)[C@@H](c2ccccc2)NC12C(=O)Nc1ccccc12 (some centres not stated) | lower level
O=C(COc1ccc(/C=C2/C(=O)Nc3ccc(Cl)cc32)cc1)Nc1ccc(Br)cc1 | lower level
Nc1nc2cc(-c3ccc4ncnc(NCc5ccccc5)c4c3)ccc2o1 | middle level
C[C@H]1[C@@H](CC(=O)N[C@@H](Cc2coc3ccccc23)B(O)O)O[C@@H]2OC3(C)CC[C@H]4[C@H](C)CC[C@@H]1[C@@]24O3 | lower level
Cc1ccc2nc(SCc3ccccc3F)n(-c3ccccc3)c(=O)c2c1 | upper level
COC(=O)CSC1=C(C)C(=O)C(OC)=C(OC)C1=O | upper level
O=C1N/C(=N\c2nccs2)S/C1=C\c1ccc([N+](=O)[O-])cc1 | middle level
Cc1ccc2nc(COc3ccc(C(=O)NNC(=O)Nc4ccc(Cl)c(C(F)(F)F)c4)cc3)[nH]c2c1 | middle level
COc1ccc(NC(=O)NN2C(=O)c3ccccc3N(C)C2c2ccc(OC)cc2)cc1 (configuration not stated) | upper level
Cc1ccc(S(=O)(=O)N(CCn2ccnc2[N+](=O)[O-])CCn2ccnc2[N+](=O)[O-])cc1 | upper level
O=C(CSc1nc2sc3c(c2c(=O)n1-c1ccc(Cl)cc1)CCCC3)NNC(=O)c1ccc(F)cc1 | middle level
Cc1ccc(C(=O)Nc2cc(-n3ccnc3C)cc(C(F)(F)F)c2)cc1C#Cc1cnc2cccnn12 | lower level
C=CC(=O)Nc1ccc(C(=O)/C=C/c2ccc(N(C)C)cc2)c(O)c1 | lower level
O=Cc1cncc(-c2ccc3ncnc(N4CCc5cc(F)c(Cl)cc54)c3c2)c1 | middle level
COc1ccc(NC2=C(I)C(=O)C(C)=C(C)C2=O)cc1 | middle level
COc1ccc2[nH]c(O)c(N=Nc3nc(-c4ccccc4)cs3)c2c1 | middle level
Cc1ccc(NC(=O)N/N=C/c2c[nH]c3ccccc23)c(C)c1 | lower level
COC(=O)c1c(C(=O)OC)c2c3ccccc3c3ccccc3n2c1C(=O)C(C)(C)C | upper level
O=C(NN1C(=O)/C(=C/C=C/c2ccc([N+](=O)[O-])o2)SC1=S)c1ccc([N+](=O)[O-])cc1 | lower level
C#CCN(C)CCCOc1ccc(N(C)C(=O)c2cc(C(C)C)c(O)cc2O)cc1Cl | middle level
Cc1ccc2nc(NC(=O)Nc3cccc(Cl)c3)sc2c1 | upper level
COc1cc(/C=N/NC(=O)c2ccc(OCc3nc4ccc(Cl)cc4[nH]3)cc2)cc(OC)c1OC | middle level
CN(C)c1nc(NCCNS(=O)(=O)c2ccc(C(=O)/C=C/c3ccccc3)cc2)nc(N2CCOCC2)n1 | upper level
Nc1cc2ccccc2c(=O)n1NC(=O)c1ccccc1 | upper level
